# assay_comment: Pharmacokinetic study in rats after oral administration of Semen Cuscutae extract (HPLC-MS/MS of plasma)
# Assay type: in vivo, Sprague–Dawley rats
# test_conditions: rat plasma, oral Semen Cuscutae extract 13 g/kg, n = 6

{"compound": "O=c1c(O[C@@H]2O[C@H](CO)[C@@H](O)[C@H](O)[C@H]2O)c(-c2ccc(O)cc2)oc2cc(O)cc(O)c12 [Astragalin]", "T max, min": 14.4}
{"compound": "O=C(/C=C/c1ccc(O)c(O)c1)O[C@@H]1C[C@](O)(C(=O)O)C[C@@H](O)[C@H]1O [Chlorogenic acid]", "T max, min": 13.2}
{"compound": "COc1cc(-c2oc3cc(O)cc(O)c3c(=O)c2O[C@@H]2O[C@H](CO)[C@@H](O)[C@H](O)[C@H]2O)ccc1O [Isorhamnetin-3-O-glucoside]", "T max, min": 18}
{"compound": "O=c1c(O[C@@H]2O[C@H](CO)[C@H](O)[C@H](O)[C@H]2O)c(-c2ccc(O)c(O)c2)oc2cc(O)cc(O)c12 [Hyperoside]", "T max, min": 10.2}
